system: MCF7 breast; assay: NCI-60 one-dose screen, 48 h (100 = growth as untreated, 0 = no growth, -100 = all killed); settings: 10 µM
Compounds without any hit were thinned out: in the full panel of roughly 83,000, 20% have a hit.
# note: boundary value 20% maps to criterion not met; growth below it maps to criterion met

Recorded results for 8 compounds are shown here.
| COMPOUND | GROUP_LABEL |
| --- | --- |
| CCN(CC)CCNC(=O)c1ccc(NC(C)=O)cc1 | criterion not met |
| O=C(c1ccc(Cl)cc1Cl)N1CCOCC1 | criterion not met |
| COc1ccc(-c2nc3sc(-c4ccccc4)c(-c4ccccc4)n3c2/C=C/C(=O)c2ccccn2)cc1 | criterion not met |
| CC1(C)N=C(N)N=C(N)N1c1ccc(CCc2ccccc2)c(Cl)c1 | criterion met |
| Nc1nc(N)c2c(ccc3nccc32)[nH]1 | criterion not met |
| COc1cc(-c2cc(/C=C3\C(=O)Nc4cc(Cl)ccc43)[nH]n2)cc(OC)c1OC | criterion met |
| Cc1ccc(Nc2cc(C)nc(NCCCNc3ccnc4cc(Cl)ccc34)n2)cc1 | criterion met |
| O=C(Nc1cccc(-n2cc(-c3ccncc3)c(-c3ccc(O)c(Cl)c3)n2)c1)c1cccc(C(F)(F)F)c1 | criterion met |

Input: Given "COc1ccc2c(c1)C(=O)c1c-2c(OCCN(C)C)nc2cc(OC)c(OC)cc12" , is recorded growth strictly lower than 20%?
Output: criterion not met

Input: Then what about the compound CCN(CC)CCC(CNc1c(C)cnc2cc(Cl)ccc12)c1ccc(Cl)cc1 (centres undefined) ?
Output: criterion not met
